The reported measurements were obtained from PubChem BioAssay (NCI).

Tested on: HS 578T breast
Assay: NCI-60 one-dose screen, 48 h (100 = growth as untreated, 0 = no growth, -100 = all killed)
Details: 10 µM unless noted
Compounds without any hit were thinned out: in the full panel of roughly 83,000, 20% have a hit. The source made the active and inactive calls. How the source made its calls: active means growth percent below 10; inactive means the rest.
Catalogue of growth readings, one per entry.

compound: C=CC1=NC(C)(C)CC(C)O1 (stereo not drawn)
growth: 107% (inactive)
//
compound: Nc1cc(F)ccc1[N+](=O)[O-]
growth: 98.7% (inactive)
//
compound: Cc1ccc(N2C(=O)c3cccc4c(N)c(S(=O)(=O)O)cc(c34)C2=O)cc1
growth: 106% (inactive)
//
compound: Nc1ncnc2c1ncn2C1OC(CO)C2OC21 (stereo not drawn)
growth: 98.9% (inactive)
//
compound: CS(=O)CC(=N\O)/C(CS(C)=O)=N\O (stereo not drawn)
growth: 106% (inactive)
//
compound: c1ccc(Oc2c3ccccc3nc3ccccc23)cc1
growth: 12.2% (inactive)
//
compound: Nc1c(O)c(S(=O)(=O)O)c(O)c2c1C(=O)c1ccccc1C2=O
growth: 59.7% (inactive)
//
compound: CC(C)N(C(=O)c1ccccc1)C(C)C
growth: 108% (inactive)
//
compound: Nc1nc2nnc(-c3ccccc3)c(-c3ccccc3)n2n1
growth: 88.9% (inactive)
//
compound: C=CCN1CCCC1=O
growth: 109% (inactive)
//
compound: Nc1ccccc1SC1CC(=O)N(c2ccc(Cl)c(Cl)c2)C1=O (stereo not drawn)
growth: 117% (inactive)
//
compound: COc1cc(-c2ccc(NC(=O)CC(C)=O)c(OC)c2)ccc1NC(=O)CC(C)=O
growth: 117% (inactive)
//
compound: O=S(Cc1ccccc1)/C(=C/NC(=S)Nc1ccccc1)c1ccccc1 (stereo not drawn)
growth: 114% (inactive)
//
compound: S=C(NCc1ccccc1)N1CCC(CCCC2CCN(C(=S)NCc3ccccc3)CC2)CC1
growth: 108% (inactive)
//
compound: COCC(N)=O
growth: 103% (inactive)
//
compound: C/C(O)=C(/C=N/C(=S)Nc1ccccc1)C(=O)Nc1ccccc1C
growth: 94.8% (inactive)
//
compound: O=C(NCc1ccccc1)/C(=C/c1ccccc1)NC(=O)c1ccccc1
growth: 99.2% (inactive)
//
compound: C=CCc1cc(OC)c(OC)c(OC)c1
growth: 103% (inactive)
//
compound: NNc1ncccn1
growth: 91.5% (inactive)
//
compound: COc1cccc(C(=O)O)c1OC
growth: 88.9% (inactive)
//
compound: Nc1ncc([N+](=O)[O-])cn1
growth: 101% (inactive)
//
compound: NNC(=O)N/N=C1\C(=O)N(c2nccs2)C(=O)C(=O)C1c1nc2ccccc2s1 (stereo not drawn)
growth: 96.2% (inactive)
//
compound: CC(=O)NNC(=S)/N=C\C(C(=O)c1ccccc1)=C(/O)c1ccccc1
growth: 106% (inactive)
//
compound: CC(C)OCC(CCl)OC(=O)Nc1ccccc1 (stereo not drawn)
growth: 114% (inactive)
//
compound: CC(=O)N(CCCCCCN(C(C)=O)C(C)=O)C(C)=O
growth: 105% [100 µM] (inactive)
//
compound: COC(=O)c1cccc([N+](=O)[O-])c1
growth: 102% (inactive)
//
compound: O=C(CCl)Oc1ccc([N+](=O)[O-])cc1
growth: 128% (inactive)
//
compound: O=C(CCCl)OCCOc1ccccc1
growth: 98.8% (inactive)
